# experimental.system: DGKα (Homo sapiens (Human))
# Sequence (P23743 whole entry): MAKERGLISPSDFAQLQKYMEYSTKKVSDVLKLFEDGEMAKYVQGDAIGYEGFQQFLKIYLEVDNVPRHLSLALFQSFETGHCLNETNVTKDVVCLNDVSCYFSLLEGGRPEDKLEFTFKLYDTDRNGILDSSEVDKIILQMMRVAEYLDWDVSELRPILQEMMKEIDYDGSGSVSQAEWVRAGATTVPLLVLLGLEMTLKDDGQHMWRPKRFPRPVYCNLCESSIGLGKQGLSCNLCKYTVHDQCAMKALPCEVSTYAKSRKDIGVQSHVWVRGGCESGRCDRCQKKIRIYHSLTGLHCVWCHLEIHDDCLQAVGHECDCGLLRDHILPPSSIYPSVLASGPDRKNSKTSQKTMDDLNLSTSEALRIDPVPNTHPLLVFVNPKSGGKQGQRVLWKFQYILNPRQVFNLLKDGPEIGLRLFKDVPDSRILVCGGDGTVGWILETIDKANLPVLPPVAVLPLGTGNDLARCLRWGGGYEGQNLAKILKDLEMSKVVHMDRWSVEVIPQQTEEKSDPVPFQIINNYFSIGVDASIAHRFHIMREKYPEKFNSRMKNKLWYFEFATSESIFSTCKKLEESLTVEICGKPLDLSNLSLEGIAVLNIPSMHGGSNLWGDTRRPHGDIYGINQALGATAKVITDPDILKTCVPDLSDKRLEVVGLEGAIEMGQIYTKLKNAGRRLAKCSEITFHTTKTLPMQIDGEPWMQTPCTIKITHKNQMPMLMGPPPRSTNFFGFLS
# protocol.text: In vitro DGKα inhibition assay (ADP-Glo)
# Type: biochemical
# condition.description: first column of Table A; His-tagged human recombinant DGKα 0.1 nM, 50 μM ATP, 20 μM DLG
Items are presented alongside their recorded IC50.

IN: IC50 lookup needed for CC[C@@H]1CN(c2nc(=O)n(C)c3c2nc(C)n3C[C@H]2OCC[C@H]2O)[C@@H](C)CN1[C@H](CC)c1ccc(C(F)(F)F)cc1 , thanks.
OUT: ≤ 10 nM

IN: Quick one: CC[C@@H]1CN(c2nc(=O)n(C)c3c2nc(C)n3C[C@@H]2CCCO2)[C@@H](C)CN1[C@@H](CC)c1ccc(C(F)(F)F)cc1
OUT: ≤ 10 nM

IN: Quick one: CC[C@@H]1CN(c2nc(=O)n(C)c3c2nc(C)n3C[C@@H]2CCCO2)[C@@H](C)CN1[C@@H](c1ccc(C(F)(F)F)cc1)C(C)C
OUT: ≤ 10 nM

IN: Quick one: CC[C@@H]1CN(c2nc(=O)n(C)c3c2nnn3C[C@H]2CCCO2)[C@@H](C)CN1[C@H](c1ccc(Cl)cc1)[C@@H]1CC1(F)F
OUT: ≤ 10 nM

IN: Quick one: Cc1nc2c(N3C[C@@H](C)N(C(c4ccc(F)cc4)c4ccc(F)cc4)C[C@@H]3C)nc(=O)n(C)c2n1C[C@@H]1CCCO1
OUT: ≤ 10 nM
